# procedureDetails: qHTS assay for small molecule activators of the p53 signaling pathway (AID 651743); also: series mostly up to about 92 µM; % of control where 0% means no effect
# condition: HCT-116 p53RE-bla, beta-lactamase FRET ratio, 16 h; hits give high values
Inconclusive results are not listed. Active and inactive are the calls of the source. Calls follow the shape of the dose curve; as a rule, active = well fitted activation curve with a large enough effect in the signal ratio (not every such curve was filed as active); inconclusive = small, poorly fitted or top-dose-only effect, or a change in a side signal; inactive = flat fitted curve, though single readings scatter; the % refers to the signal ratio.
Task for the reader: assign each of the following compounds its reported activation.

activation measured on CC(C)(C)C(O)/C(=C\c1ccc(Cl)cc1Cl)n1cncn1 (stereo not given) = 9.12% (inactive)

activation measured on `COc1ccc(-c2ccccc2)cc1NNC(=O)OC(C)C` = -1.18% (inactive)

activation measured on `C/C=C(\C)C(=O)O[C@H]1C[C@@H](OC(C)=O)[C@@]2(C(=O)OC)CO[C@H]3[C@@H](O)[C@@](C)([C@]45O[C@@]4(C)[C@H]4C[C@@H]5O[C@@H]5OC=C[C@@]54O)[C@H]4[C@]1(CO[C@]4(O)C(=O)OC)[C@@H]32` = 6.01% (inactive)

activation measured on `CCOC(=O)COc1cc(-c2nn(C)c(OC(F)F)c2Cl)c(F)cc1Cl` = -1.21% (inactive)

activation measured on `CCOP(=S)(S)OCC` = -1.75% (inactive)

activation measured on `CCNc1nc(NC(C)C)nc(OC)n1` = -0.985% (inactive)

activation measured on `CCc1cc(C)cc(CC)c1-c1c(OC(=O)C(C)(C)C)n2n(c1=O)CCOCC2` = -4.38% (inactive)

activation measured on `CN(C)P(=O)(N(C)C)N(C)C` = -2.55% (inactive)

activation measured on O=CNC(N1CCN(C(NC=O)C(Cl)(Cl)Cl)CC1)C(Cl)(Cl)Cl (stereo not given) = -7.11% (inactive)

activation measured on `Cc1cc(Cl)ccc1O[C@H](C)C(=O)O` = -0.679% (inactive)

----------
# procedureDetails: qHTS Assay for Identifying Gametocytocidal Compounds (AID 743244); also: potency is read from the fitted curve at half-maximal effect
# condition: P. falciparum 3D7 stage III-V gametocytes, alamarBlue, 72 h
Inconclusive results are not listed. The source made the active and inactive calls. Calls come from the whole dose curve; as a rule, active = well fitted curve in the direction sought with a large enough effect; inconclusive = small, poorly fitted or top-dose-only effect, or another doubt; inactive = no such curve, though single readings can be large or run the other way.
recordedMetric: Potency

Potency measured on `C[C@H]1[C@@H](OC(=O)CCC(=O)O)O[C@@H]2OC3(C)CC[C@H]4[C@H](C)CC[C@@H]1[C@@]24OO3` = 66.2 nM (active)

Potency measured on `C[C@]12O[C@H](C[C@]1(O)CO)n1c3ccccc3c3c4c(c5c6ccccc6n2c5c31)CNC4=O` = 2510 nM (active)

Potency measured on `COc1cc(-c2ccc(-[n+]3nc(-c4ccccc4)nn3-c3ccc([N+](=O)[O-])cc3)c(OC)c2)ccc1-[n+]1nc(-c2ccccc2)nn1-c1ccc([N+](=O)[O-])cc1` = 5620 nM (active)

Potency measured on C[C@@H]1CC[C@H]2[C@@H](C)C(=O)O[C@@H]3OC4(C)CC[C@@H]1C32OO4 (stereo partly specified) = 136 nM (active)

Potency measured on `C=Cc1c(C)c2cc3nc(cc4[nH]c(cc5nc(cc1[nH]2)C(C)=C5CCC(=O)OC)c(CCC(=O)O)c4C)[C@@]1(C)C3=CC=C(C(=O)OC)[C@H]1C(=O)OC` = 894 nM (active)

Potency measured on COC(C(=O)C(O)C(C)O)C1Cc2cc3cc(OC4CC(OC5CC(O)C(O)C(C)O5)C(O)C(C)O4)c(C)c(O)c3c(O)c2C(=O)C1OC1CC(OC2CC(OC3CC(C)(O)C(O)C(C)O3)C(O)C(C)O2)C(O)C(C)O1 (stereo unspecified) = 1120 nM (active)
